Values from patent US7879881B2

# system: GP IIb/IIIa (Homo sapiens, UniProt P05106+P08514)
# Sequence (P08514 32-887 limits assumed, one chain of several): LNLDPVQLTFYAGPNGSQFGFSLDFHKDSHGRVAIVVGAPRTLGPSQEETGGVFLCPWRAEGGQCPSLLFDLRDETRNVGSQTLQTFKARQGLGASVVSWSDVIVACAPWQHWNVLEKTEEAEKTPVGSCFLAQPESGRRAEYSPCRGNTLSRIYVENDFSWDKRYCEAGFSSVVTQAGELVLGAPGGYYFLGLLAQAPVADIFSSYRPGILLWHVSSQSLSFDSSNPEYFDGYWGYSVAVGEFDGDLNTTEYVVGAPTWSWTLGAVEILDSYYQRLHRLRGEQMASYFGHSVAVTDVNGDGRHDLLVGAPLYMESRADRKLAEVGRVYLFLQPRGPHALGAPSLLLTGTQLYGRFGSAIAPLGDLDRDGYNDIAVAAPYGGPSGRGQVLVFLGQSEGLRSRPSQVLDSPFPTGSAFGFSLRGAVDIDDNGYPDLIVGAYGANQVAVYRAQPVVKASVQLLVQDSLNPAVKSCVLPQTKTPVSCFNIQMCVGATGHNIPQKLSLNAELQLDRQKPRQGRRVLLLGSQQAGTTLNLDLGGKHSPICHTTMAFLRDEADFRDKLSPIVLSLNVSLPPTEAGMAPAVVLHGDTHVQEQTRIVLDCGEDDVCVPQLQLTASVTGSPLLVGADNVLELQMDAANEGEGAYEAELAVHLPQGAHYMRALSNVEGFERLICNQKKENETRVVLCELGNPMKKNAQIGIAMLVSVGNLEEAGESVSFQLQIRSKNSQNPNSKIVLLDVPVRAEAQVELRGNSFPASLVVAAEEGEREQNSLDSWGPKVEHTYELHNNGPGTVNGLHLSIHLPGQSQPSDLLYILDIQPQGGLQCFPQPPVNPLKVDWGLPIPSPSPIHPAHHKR
# Sequence (P08514 891-1039 partner limits assumed, one chain of several): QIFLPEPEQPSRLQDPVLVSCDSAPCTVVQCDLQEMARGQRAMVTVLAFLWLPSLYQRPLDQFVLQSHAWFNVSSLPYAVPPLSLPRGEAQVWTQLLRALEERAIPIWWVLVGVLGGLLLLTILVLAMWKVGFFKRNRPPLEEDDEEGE
# measurement notes: In Vitro Solid Phase Purified GP IIb/IIIa Binding Assay (biotinylated fibrinogen)
# test context: biotinylated fibrinogen binding to immobilized purified GP IIb/IIIa; mean ± spread; read-out: αIIbβ3 IC50
quantity measured: IC50 (µM)

Recorded IC50, per entry:
# molecule, system, test result
data = [
    ("O=C(O)CCC1CCN(C(=O)CCc2cccc(NC3=NCCCN3)c2)CC1", "GP IIb/IIIa (Homo sapiens, UniProt P05106+P08514)", 4.78),
    ("O=C(O)CC(CC1CCN(C(=O)CCc2ccc3c(n2)NCCC3)CC1)c1cnc2ccccc2c1 (centres unmarked)", "GP IIb/IIIa (Homo sapiens, UniProt P05106+P08514)", 1.05),
    ("COc1ccc(C(CCC2CCN(C(=O)c3cccc(NC4=NCC(O)CN4)c3)CC2)CC(=O)O)cn1 (centres unmarked)", "GP IIb/IIIa (Homo sapiens, UniProt P05106+P08514)", 1.67),
    ("O=C(O)CC(CC1CCN(C(=O)CCc2ccc3c(n2)NCCC3)CC1)c1ccc2ccccc2c1 (centres unmarked) [Cpd 56]", "GP IIb/IIIa (Homo sapiens, UniProt P05106+P08514)", 39.1),
    ("O=C(O)CC(CC1CCN(C(=O)CCc2ccc3c(n2)NCCC3)CC1)C1CNc2ccccc2C1 (single isomer, unassigned) [Cpd 19-2]", "GP IIb/IIIa (Homo sapiens, UniProt P05106+P08514)", 12.9),
]

(1) O=C(O)CC(CCC1CCN(C(=O)CCCNc2ccccn2)CC1)c1ccc2c(c1)OCO2 (centres unmarked)
(2) O=C(O)CC(CC1CCN(C(=O)CCc2ccc3c(n2)NCCC3)CC1)c1ccc(-c2ccccc2)c(F)c1 (centres unmarked)
Q) Field: lower recorded IC50 (choose 1 or 2 ) Provide the label of your selected option as the answer.
A) 1
(1: 4.93 µM, 2: 19.3 µM)

----------
# system: Human αvβ3 (Homo sapiens, UniProt P05106+P06756)
# Construct: purchased Chemicon International Inc., Temecula, Calif
# Sequence (P06756 31-889 limits assumed): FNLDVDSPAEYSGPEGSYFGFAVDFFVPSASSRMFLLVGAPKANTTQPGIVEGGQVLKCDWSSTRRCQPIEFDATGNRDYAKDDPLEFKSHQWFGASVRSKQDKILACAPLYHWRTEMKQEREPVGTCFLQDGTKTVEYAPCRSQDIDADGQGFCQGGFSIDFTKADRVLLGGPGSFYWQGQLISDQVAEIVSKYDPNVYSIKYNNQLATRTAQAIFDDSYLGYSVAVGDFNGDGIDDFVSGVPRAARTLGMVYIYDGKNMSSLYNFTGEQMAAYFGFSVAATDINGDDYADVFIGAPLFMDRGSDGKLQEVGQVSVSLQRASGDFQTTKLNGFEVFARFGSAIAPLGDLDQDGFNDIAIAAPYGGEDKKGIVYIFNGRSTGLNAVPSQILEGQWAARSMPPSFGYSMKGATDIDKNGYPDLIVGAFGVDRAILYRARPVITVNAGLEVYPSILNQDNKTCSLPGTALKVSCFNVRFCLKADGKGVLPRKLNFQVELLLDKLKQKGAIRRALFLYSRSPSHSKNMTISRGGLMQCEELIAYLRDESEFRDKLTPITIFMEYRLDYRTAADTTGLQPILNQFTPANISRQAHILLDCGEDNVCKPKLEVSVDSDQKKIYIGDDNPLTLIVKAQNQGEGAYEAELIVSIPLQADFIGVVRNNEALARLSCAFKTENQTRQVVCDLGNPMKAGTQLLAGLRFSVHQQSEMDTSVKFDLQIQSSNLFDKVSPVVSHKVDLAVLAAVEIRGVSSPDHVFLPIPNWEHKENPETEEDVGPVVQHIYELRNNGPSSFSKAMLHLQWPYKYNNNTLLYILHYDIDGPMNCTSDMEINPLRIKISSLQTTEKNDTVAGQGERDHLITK
# Sequence (P06756 891-1048 partner limits assumed): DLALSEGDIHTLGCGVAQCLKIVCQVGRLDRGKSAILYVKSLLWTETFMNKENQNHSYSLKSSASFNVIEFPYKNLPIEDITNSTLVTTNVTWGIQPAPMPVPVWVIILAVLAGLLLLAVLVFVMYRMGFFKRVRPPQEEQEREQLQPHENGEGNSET
# Sequence (P05106 27-788): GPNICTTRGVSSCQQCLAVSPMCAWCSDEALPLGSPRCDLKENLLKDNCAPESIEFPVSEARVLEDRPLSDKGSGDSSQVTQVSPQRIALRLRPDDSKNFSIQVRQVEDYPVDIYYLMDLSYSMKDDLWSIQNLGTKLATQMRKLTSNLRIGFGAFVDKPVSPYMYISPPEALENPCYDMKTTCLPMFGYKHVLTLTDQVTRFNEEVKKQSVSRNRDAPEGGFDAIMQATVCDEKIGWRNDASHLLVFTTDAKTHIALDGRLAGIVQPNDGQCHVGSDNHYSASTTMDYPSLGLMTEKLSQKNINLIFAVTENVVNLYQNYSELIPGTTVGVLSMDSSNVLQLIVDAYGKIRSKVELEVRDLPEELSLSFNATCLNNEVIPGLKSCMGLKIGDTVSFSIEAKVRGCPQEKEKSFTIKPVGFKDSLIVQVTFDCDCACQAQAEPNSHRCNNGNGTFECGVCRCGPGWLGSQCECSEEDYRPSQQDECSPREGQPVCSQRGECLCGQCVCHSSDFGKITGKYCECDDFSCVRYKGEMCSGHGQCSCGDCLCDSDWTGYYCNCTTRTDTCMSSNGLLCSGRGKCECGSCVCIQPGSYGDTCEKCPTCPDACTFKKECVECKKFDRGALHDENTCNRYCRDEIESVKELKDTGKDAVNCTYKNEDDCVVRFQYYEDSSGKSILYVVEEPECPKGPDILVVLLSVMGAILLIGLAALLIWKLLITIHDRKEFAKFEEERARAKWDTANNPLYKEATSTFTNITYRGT
# measurement notes: In Vitro Solid Phase Purified αvβ3 Binding Assay (vitronectin/αvβ3)
# test context: vitronectin binding to immobilized purified human αvβ3; mean ± spread; read-out: αvβ3IC50
quantity measured: IC50 (nM)

# molecule, test result
records = [
    ("O=C(O)CC(c1ccc2c(c1)OCO2)C1CCN(C(=O)Cc2ccc3c(n2)NCCC3)CC1 (stereo not shown) [Cpd 16]", 281),
]

(1) O=C(O)CC(CCC1CCN(C(=O)CCc2ccc3c(n2)NCCC3)CC1)c1cccnc1 (stereo not shown) [Cpd 8]
(2) COc1cc(C(CC(=O)O)CC2CCN(C(=O)CCc3ccc4c(n3)NCCC4)CC2)ccc1O (racemic) [Cpd 76]
(3) O=C(O)CC(c1ccc2c(c1)OCO2)C1CCN(C(=O)CCCNc2ccccn2)CC1 (stereo not shown) [Cpd 24]
Q) // ranking: key=IC50, reverse=True // rank by listing labels in the order requested
A) 3, 1, 2
(3: 307 nM, 1: 17.9 nM, 2: 1.8 nM)

----------
# system: human purified αVβ5 (Homo sapiens, UniProt P06756+P18084)
# Construct: purchased Chemicon International, Inc
# Sequence (P18084 24-799, one chain of several): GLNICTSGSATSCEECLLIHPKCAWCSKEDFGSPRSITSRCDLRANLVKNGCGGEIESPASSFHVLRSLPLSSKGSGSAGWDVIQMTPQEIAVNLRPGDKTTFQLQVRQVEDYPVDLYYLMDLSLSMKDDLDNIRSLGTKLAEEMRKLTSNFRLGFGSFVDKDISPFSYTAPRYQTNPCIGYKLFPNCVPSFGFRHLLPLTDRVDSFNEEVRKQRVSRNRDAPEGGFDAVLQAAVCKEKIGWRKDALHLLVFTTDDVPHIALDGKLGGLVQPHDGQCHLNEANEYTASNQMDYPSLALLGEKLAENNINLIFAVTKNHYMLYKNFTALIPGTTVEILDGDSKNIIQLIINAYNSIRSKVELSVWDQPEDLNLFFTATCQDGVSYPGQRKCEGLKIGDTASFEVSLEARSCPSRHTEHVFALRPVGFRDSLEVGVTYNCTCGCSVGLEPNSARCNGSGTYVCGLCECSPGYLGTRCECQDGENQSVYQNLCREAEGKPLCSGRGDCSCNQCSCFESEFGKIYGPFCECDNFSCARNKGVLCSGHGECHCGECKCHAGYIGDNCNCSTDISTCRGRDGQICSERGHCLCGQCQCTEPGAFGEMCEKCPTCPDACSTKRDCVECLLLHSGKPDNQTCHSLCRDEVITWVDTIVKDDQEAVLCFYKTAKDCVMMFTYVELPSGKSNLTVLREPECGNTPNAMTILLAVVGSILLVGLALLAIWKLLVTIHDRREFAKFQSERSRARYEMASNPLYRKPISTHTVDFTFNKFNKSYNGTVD
# measurement notes: In Vitro Solid Phase Purified αcβ5 Binding Assay (vitronectin/αVβ5)
# test context: vitronectin binding to immobilized purified human αVβ5; mean ± spread; read-out: αvβ5 IC50
pIC50: −log10 of the molar value.
quantity measured: pIC50

# compound, system, pIC50
measured = [
    ("COc1ccc(C(CC(=O)O)CC2CCN(C(=O)CCc3ccc4c(n3)NCCC4)CC2)cn1 (single isomer, unassigned) [Cpd 28b]", "human purified αVβ5 (Homo sapiens, UniProt P06756+P18084)", 6.90),
    ("O=C(O)CC(CC1CCN(C(=O)CCc2ccc3c(n2)NCCC3)CC1)c1cccs1 (racemic)", "human purified αVβ5 (Homo sapiens, UniProt P06756+P18084)", 8.15),
    ("O=C(O)CC(CC1CCN(C(=O)CCc2ccc3c(n2)NCCC3)CC1)c1ccc(-c2ccccc2)c(F)c1 (centres unmarked)", "human purified αVβ5 (Homo sapiens, UniProt P06756+P18084)", 6.06),
    ("O=C(O)CC(CC1CCN(C(=O)CCc2ccc3c(n2)NCCC3)CC1)c1ccc2c(c1)CCO2 (centres unmarked)", "human purified αVβ5 (Homo sapiens, UniProt P06756+P18084)", 7.18),
]

(1) O=C(O)CC(CC1CCN(C(=O)c2cccc(NC3=NCC(O)CN3)c2)CC1)c1ccc2c(c1)OCO2 (centres unmarked)
(2) O=C(O)CC(CC1CCN(C(=O)CCCc2ccc3c(n2)NCCC3)CC1)c1cc(F)cc(F)c1 (centres unmarked)
Q) Recorded pIC50 values differ for 1 and 2 ; which one is higher? Provide the label of your selected option as the answer.
A) 1

----------
# system: human purified αVβ5 (Homo sapiens, UniProt P06756+P18084)
# Construct: purchased Chemicon International, Inc
# measurement notes: In Vitro Solid Phase Purified αcβ5 Binding Assay (vitronectin/αVβ5)
# test context: vitronectin binding to immobilized purified human αVβ5; mean ± spread; read-out: αvβ5 IC50
quantity measured: IC50 (nM)

(P) O=C(O)CC(CCC1CCN(C(=O)c2cccc(NC3=NCC(O)CN3)c2)CC1)c1cnc2ccccc2c1 (stereo not drawn)
(Q) O=C(O)CC(CC1CCN(CCCc2ccc3c(n2)NCCC3)CC1)c1cccc(F)c1 (racemic)
(R) CNc1cccc(C(CC(=O)O)CC2CCN(C(=O)CCc3ccc4c(n3)NCCC4)CC2)c1 (racemic)
Q) Rank the items in ascending order with respect to IC50. // rank by listing labels in the order requested
A) Q, R, P

(P) CSc1cccc(C(CC(=O)O)CC2CCN(C(=O)CCc3ccc4c(n3)NCCC4)CC2)c1 (racemic)
(Q) O=C(O)CC(CC1CCN(C(=O)CCc2ccc3c(n2)NCCC3)CC1)c1ccc2c(c1)OCC2 (single isomer, unassigned) [Cpd 36a]
(R) O=C(O)CC(CCC1CCN(C(=O)CCc2ccc3c(n2)NCCC3)CC1)c1ccc2c(c1)OCO2 (stereo not drawn)
Q) // ranking: key=IC50, reverse=True // rank by listing labels in the order requested
A) R, P, Q

(P) O=C(O)CC(CCC1CCN(C(=O)CCc2ccc3c(n2)NCCC3)CC1)c1cnc2ccccc2c1 (stereo not drawn)
(Q) O=C(O)CC(CC1CCN(C(=O)c2cccc(NC3=NCCN3)c2)CC1)c1cccc(F)c1 (racemic)
(R) CCNc1cccc(C(CC(=O)O)CC2CCN(C(=O)CCc3ccc4c(n3)NCCC4)CC2)c1 (racemic)
(S) O=C(O)CC(CC1CCN(C(=O)CCc2ccc3c(n2)NCCC3)CC1)c1cccc(F)c1 (single isomer, unassigned) [Cpd 30a]
Q) Please order the records by their reported IC50, lowest number first. // rank by listing labels in the order requested
A) S, R, P, Q
(S: 1.9 nM, R: 26 nM, P: 169 nM, Q: 789 nM)

----------
# system: human purified αVβ5 (Homo sapiens, UniProt P06756+P18084)
# Construct: purchased Chemicon International, Inc
# measurement notes: In Vitro Solid Phase Purified αcβ5 Binding Assay (vitronectin/αVβ5)
# test context: vitronectin binding to immobilized purified human αVβ5; mean ± spread; read-out: αvβ5 IC50
quantity measured: IC50 (nM)

Recorded IC50, per entry:
# compound, measure unit, IC50
measured = [
    ("O=C(O)CC(CC1CCN(C(=O)CCc2ccc3c(n2)NCCC3)CC1)c1cccc(C(F)(F)F)c1 (stereo not drawn) [Cpd 39]", "nM", 28.7),
    ("O=C(O)CC(CCC1CCN(C(=O)c2cccc(NC3=NCCCN3)c2)CC1)c1cnc2ccccc2c1 (stereo not drawn) [Cpd 12]", "nM", 78),
    ("O=C(O)CC(CC1CCN(C(=O)CCc2ccc3c(n2)NCCC3)CC1)c1ccc2c(c1)OCC2 (single isomer, unassigned) [Cpd 36b]", "nM", 129),
    ("COc1ccc(C(CC(=O)O)CC2CCN(C(=O)CCc3ccc4c(n3)NCCC4)CC2)cc1 (racemic) [Cpd 60]", "nM", 30.9),
    ("O=C(O)CC(CCC1CCN(C(=O)c2cccc(NC3=NCCCC3)c2)CC1)c1ccc2c(c1)OCO2 (stereo not drawn) [Cpd 53]", "nM", 138),
]

(a) O=C(O)CC(CC1CCN(C(=O)CCc2ccc3c(n2)NCCC3)CC1)c1ccc(F)cc1 (stereo not drawn) [Cpd 33]
(b) Cc1ncc(C(CC(=O)O)CC2CCN(C(=O)CCc3ccc4c(n3)NCCC4)CC2)cn1 (stereo not drawn) [Cpd 35]
Q) Recorded IC50 values differ for a and b ; which one is higher? Provide the label of your selected option as the answer.
A) a
(a: 22.6 nM, b: 0.7 nM)

(I) O=C(O)CC(CC1CCN(C(=O)CCc2ccc3c(n2)NCCC3)CC1)c1ccc2c(c1)OCCO2 (racemic) [Cpd 65]
(II) O=C(O)CC(CC1CCN(C(=O)CCCc2ccc3c(n2)NCCC3)CC1)c1ccc(F)cc1 (stereo not drawn) [Cpd 34]
Q) Recorded IC50 values differ for I and II ; which one is higher? Provide the label of your selected option as the answer.
A) II
(II: 1040 nM, I: 34.6 nM)
